system: human CYP11B1 (Homo sapiens)
Sequence (P15538 25-503): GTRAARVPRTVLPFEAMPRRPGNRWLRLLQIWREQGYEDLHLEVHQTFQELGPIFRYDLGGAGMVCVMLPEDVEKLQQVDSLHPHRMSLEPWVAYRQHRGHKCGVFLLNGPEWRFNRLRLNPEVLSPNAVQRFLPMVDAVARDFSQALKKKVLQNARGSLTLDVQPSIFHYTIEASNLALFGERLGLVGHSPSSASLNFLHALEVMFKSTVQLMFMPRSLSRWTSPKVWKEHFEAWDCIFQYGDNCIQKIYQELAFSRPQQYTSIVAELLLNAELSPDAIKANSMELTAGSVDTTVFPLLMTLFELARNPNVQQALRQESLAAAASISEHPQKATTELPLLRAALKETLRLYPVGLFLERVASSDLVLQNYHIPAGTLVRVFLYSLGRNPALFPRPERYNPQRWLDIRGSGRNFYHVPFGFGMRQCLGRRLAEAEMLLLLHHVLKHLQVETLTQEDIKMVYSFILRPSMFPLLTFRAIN
procedureText: G-402 cellular enzyme assay, human CYP11B1 (cortisol release, HTRF)
setupConditions: G-402 cells expressing human CYP11B1; 1 μM Deoxycortisol
Counter-ions that a name gives are not always drawn.
measurementName: EC50 (nM)
Give bare numbers, in nM.

A selection of reference data follows.
Given the compound CN1C(=O)CCc2cc(-c3cncc(C(C)(C)N)c3)ccc21 , what is its reported EC50?
101

Moving on to Cc1noc(C)c1C(=O)NCc1cncc(-c2ccc3c(c2)CCC(=O)N3C)c1C
2860

Likewise for CCS(=O)(=O)NC(C)c1cncc(-c2ccc3c(c2)CCC(=O)N3C)c1 (single isomer, unassigned) [Example 174] ?
1230

Thanks! And CN1C(=O)CCc2cc(-c3cncc(CNS(=O)(=O)c4ccc(Cl)c(Cl)c4)c3)ccc21 ?
1370

What about CN1C(=O)CCc2cc(-c3cncc(OCCNC(=O)OC(C)(C)C)c3)c(F)cc21 ?
16

Another compound to check: CN1C(=O)CCc2cc(-c3cncc(OCCN)c3)ccc21 [Example 42, hydrochloride]
160

// next record Cc1noc(C(F)(F)F)c1C(=O)NCc1cncc(-c2ccc3c(c2)CCC(=O)N3C)c1
2430

Here is the next compound: CN1C(=O)CCc2cc(-c3cncc(C4(N)COC4)c3)ccc21 [Example 69, hydrochloride]
3490

Repeat for the following compound: CN1C(=O)CCc2cc(-c3cncc(CNS(=O)(=O)c4cn(C)cn4)c3)ccc21
3260

What do we get for CN1C(=O)CCc2cc(-c3cncc(OC[C@@H]4CCCN4C(=O)OC(C)(C)C)c3)ccc21 ?
1870

Batch of 3 compounds: report EC50 for each.
1. CN1C(=O)CCc2cc(-c3cncc(C4(N[S@+]([O-])C(C)(C)C)COC4)c3)ccc21
2. CC(NC(=O)c1ncccc1Cl)c1cncc(-c2ccc3c(c2)CCC(=O)N3C)c1Cl (single isomer, unassigned)
3. CN1C(=O)CCc2cc(-c3cncc(OC[C@@H]4CCN4)c3)ccc21

1: 3850; 2: 6; 3: 16000
